# SYSTEM: UniProt P9WHJ3
# TEST PROTOCOL: Fluorescence Cell-Free Homogeneous Dose Retest to Identify Inhibitors of RecA-Intein Splicing Activity. [Related pubchem assays (depositor defined):AID2097, AID2223, AID489010, AID492950]
# Format: functional
Active and inactive are the calls of the source. No stated cut-off is given here; in the data, actives have a measured EC50 and inactives only a lower limit.
TEST READOUT: EC50

Example results:
Task item: Value lookup for EC50; key = CCc1oc2ccccc2c1C(=O)c1cc(Br)c(O)c(Br)c1 [BENZBROMARONE]
Reply: 11.5 µM (active)

Task item: Given the entry COc1ccc(CS(=O)(=O)/C(Cl)=C(/Cl)C(=O)Nc2ccc(OC)nc2)cc1 , report its measured EC50.
Reply: 3.34 µM (active)

Task item: What does the data say about its EC50? Entry: Cc1[nH][nH]c(=O)c1C(c1ccc(-c2ccc(Cl)c(Cl)c2)o1)c1c(C)[nH][nH]c1=O
Reply: 0.305 µM (active)

Attention now turns to another entry.
Task item: Give its EC50 value. Item: O=C1C=C(N2CCOCC2)c2ccccc2C1=O
Reply: 0.15 µM (active)

From: ChEMBL document CHEMBL1201862
